The measured values listed here are drawn from the supplement of paper PMC12042874.

# testProtocol: amyloid nucleation score (Sup35N fusion, yeast selection) (log enrichment); library NNK3; higher = more nucleation; inactive = no reads after selection;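 note: zero at mode of non-aggregating sequences after 7 days selection at 30°C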
measurementLabel: amyloid nucleation score

Worked cases, answers included:
> print(dat)
              substance  assayresult
1  VVLIFWWKSQGMSMIVFVIY     inactive
2  VFKMACEWSALWWNLLHTYS     inactive
3  VTFSCLYVFFYRQVIRCFGM        0.059
4    IFVWGNNLTMSLSVFNNA         2.58
5       LDGMYHTVRICNSCF     inactive

Tell me amyloid nucleation score reported for RYFNGPYLGRTVFEFT
inactive

Tell me amyloid nucleation score reported for GSYLQGMRCVADWDNGEQLR
1.97
